# assayedTarget: T1, p5 peptide of EGFL7 (human)
# T1 construct: also called Peptide P5
# T1 peptide: RACSTYRTIYRTA
# experimentalProtocol: SPR (Biacore), IgG over immobilized P5 peptide at 37 C, n = 2
measuredEndpoint: koff (s⁻¹)
# value in s⁻¹; strip the unit string

Task: Fill blank: measured koff of the binder 18F7.v6C IgG (antibody, V domains shown, IgG; Variant of 18F7.v6) VH: EVQLVESGGGLVQPGGSLRLSCAASGYTFIDYYMNWVRQAPGKGLEWVGDINLDNSGTHYNQKFKGRFTISRDKSKNTAYLQMNSLRAEDTAVYYCAREGVYHDYDDYAMDYWGQGTLVTVSS VL: DIQMTQSPSSLSASVGDRVTITCRTSQSLVHINGITYLHWYQQKPGKAPKLLIYRVSNRFSGVPSRFSGSGSGTDFTLTISSLQPEDFATYYCGQSTHVPLTFGQGTKVEIK is ____.
Result: 0.000502
